# TEST TARGET: mouse TRPM3α2 (mTRPM3) ion channel (Mus musculus (Mouse))
# Sequence (J9SQF3 other isoform, or with tags, fused parts or gaps): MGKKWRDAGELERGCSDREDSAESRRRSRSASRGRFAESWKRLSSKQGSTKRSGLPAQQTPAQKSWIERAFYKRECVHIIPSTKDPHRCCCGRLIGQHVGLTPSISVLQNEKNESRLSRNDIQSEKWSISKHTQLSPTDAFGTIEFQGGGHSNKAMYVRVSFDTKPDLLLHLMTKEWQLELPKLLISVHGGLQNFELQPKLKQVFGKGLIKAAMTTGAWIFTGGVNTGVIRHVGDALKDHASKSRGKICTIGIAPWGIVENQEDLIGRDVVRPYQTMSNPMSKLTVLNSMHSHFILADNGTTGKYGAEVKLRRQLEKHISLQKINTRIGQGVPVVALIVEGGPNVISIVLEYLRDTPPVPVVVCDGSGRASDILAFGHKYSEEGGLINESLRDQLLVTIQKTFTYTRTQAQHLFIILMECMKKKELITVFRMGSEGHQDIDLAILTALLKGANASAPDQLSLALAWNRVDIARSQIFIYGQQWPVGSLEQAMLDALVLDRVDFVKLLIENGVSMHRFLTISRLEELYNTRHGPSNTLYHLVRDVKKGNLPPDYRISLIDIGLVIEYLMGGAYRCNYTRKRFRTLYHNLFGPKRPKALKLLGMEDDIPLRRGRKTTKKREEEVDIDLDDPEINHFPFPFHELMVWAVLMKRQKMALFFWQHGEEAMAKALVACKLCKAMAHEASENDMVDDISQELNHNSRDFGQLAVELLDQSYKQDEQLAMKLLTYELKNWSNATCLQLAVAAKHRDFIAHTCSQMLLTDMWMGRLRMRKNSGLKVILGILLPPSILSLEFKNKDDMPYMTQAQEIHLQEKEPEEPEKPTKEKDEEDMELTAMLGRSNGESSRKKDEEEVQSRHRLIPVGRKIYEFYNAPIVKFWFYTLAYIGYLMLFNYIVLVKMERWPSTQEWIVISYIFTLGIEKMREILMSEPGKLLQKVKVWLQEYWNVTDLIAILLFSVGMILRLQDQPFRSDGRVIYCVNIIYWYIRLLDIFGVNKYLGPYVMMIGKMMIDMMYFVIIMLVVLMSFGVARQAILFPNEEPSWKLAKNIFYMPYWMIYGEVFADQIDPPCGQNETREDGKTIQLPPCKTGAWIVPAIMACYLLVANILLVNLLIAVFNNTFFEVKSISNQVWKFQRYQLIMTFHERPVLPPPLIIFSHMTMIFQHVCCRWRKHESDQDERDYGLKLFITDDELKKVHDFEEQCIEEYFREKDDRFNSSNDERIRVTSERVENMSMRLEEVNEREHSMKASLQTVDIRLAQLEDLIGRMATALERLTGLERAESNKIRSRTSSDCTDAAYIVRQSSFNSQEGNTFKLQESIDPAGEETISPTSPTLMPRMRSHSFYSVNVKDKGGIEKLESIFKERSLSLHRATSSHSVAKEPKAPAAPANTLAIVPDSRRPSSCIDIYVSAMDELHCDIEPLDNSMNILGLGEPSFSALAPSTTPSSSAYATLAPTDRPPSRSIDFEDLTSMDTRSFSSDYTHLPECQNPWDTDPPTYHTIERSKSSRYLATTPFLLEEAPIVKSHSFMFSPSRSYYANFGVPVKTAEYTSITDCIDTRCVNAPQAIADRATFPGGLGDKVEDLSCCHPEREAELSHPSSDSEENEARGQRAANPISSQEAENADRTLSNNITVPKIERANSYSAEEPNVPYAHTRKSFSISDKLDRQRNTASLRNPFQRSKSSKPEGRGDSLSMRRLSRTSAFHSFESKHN
# ASSAY DETAILS: TRPM3 ion channel driven Ca2+ uptake, Fluo-4 AM assay, mTRPM3alpha2 overexpressing flip-in HEK293 cells stimulated with pregnenolone sulfate
# Type: cell-based
# CONDITION LABEL: PS (50 μM) stimulated, cpds. 608-666
Below is a list of entries, each paired with its recorded IC50 value.

Known IC50 results, listed for orientation:
# COMPOUND, TEST TARGET, EXPERIMENTAL RESULT
measured = [
    ("Cc1ccc(COc2ccc3oc(C)c(C(=O)NC4(CO)CCOCC4)c3c2)nn1 [compound 621]", "mouse TRPM3α2 (mTRPM3) ion channel (Mus musculus (Mouse))", "> 20 µM"),
    ("COc1cc(COc2ccc3oc(C)c(C(=O)NC4(CO)CCOCC4)c3c2)ccn1 [compound 629]", "mouse TRPM3α2 (mTRPM3) ion channel (Mus musculus (Mouse))", "< 1 µM"),
    ("Cc1ncc(COc2ccc3oc(C)c(C(=O)NC4COCC4(F)F)c3c2)s1 (single isomer, unassigned) [cpd 643-En 1]", "mouse TRPM3α2 (mTRPM3) ion channel (Mus musculus (Mouse))", "< 1 µM"),
]

input: For the compound Cc1oc2ccc(OCc3ccnn3C)cc2c1C(=O)NC1(CO)CCOCC1 [compound 608] , report IC50.
output: < 1 µM

----------
# TEST TARGET: UniProt J9SQF3
# ASSAY DETAILS: TRPM3 ion channel driven Ca2+ uptake, Fluo-4 AM assay, mTRPM3alpha2 overexpressing flip-in HEK293 cells stimulated with pregnenolone sulfate
# Assay type: cell-based
# CONDITION LABEL: PS (50 μM) stimulated, cpds. 500-599
pIC50: −log10 of the molar value.
ENDPOINT NAME: pIC50

Known pIC50 results, listed for orientation:
# MOLECULE, TEST TARGET, EXPERIMENTAL RESULT
records = [
    ("Cc1oc2ccc(OCc3cccnc3)cc2c1C(=O)NC1CCNCC1(F)F (single isomer, unassigned)", "UniProt J9SQF3", "> 6.00"),
    ("COc1ncccc1COc1ccc2oc(C)c(C(=O)NC3CCNCC3(F)F)c2c1 (single isomer, unassigned) [cpd 565-En 2]", "UniProt J9SQF3", "> 6.00"),
    ("Cc1ncsc1COc1ccc2oc(C)c(C(=O)NCC(C)(C)O)c2c1", "UniProt J9SQF3", "> 6.00"),
    ("Cc1oc2ccc(OCc3cnnn3C)cc2c1C(=O)NC1CCNCC1(F)F (single isomer, unassigned) [cpd 541-En 2]", "UniProt J9SQF3", "< 4.70"),
]

input: For the molecule Cc1oc2ccc(OCc3cccnc3O)cc2c1C(=O)NC1(C(N)=O)COC1 , report pIC50.
output: > 6.00

input: For the molecule Cc1nc(C)c(COc2ccc3oc(C)c(C(=O)NC4CCNCC4(F)F)c3c2)s1 (single isomer, unassigned) , report pIC50.
output: > 6.00

input: For the molecule Cc1ncc(COc2ccc3oc(C)c(C(=O)NC4(CO)CCNC4)c3c2)s1 (single isomer, unassigned) [530-En 2] , report pIC50.
output: > 6.00

input: For the molecule Cc1ncsc1COc1cc2c(C(=O)NC3(C(N)=O)COC3)c(C)oc2cc1F , report pIC50.
output: > 6.00

input: For the molecule Cc1oc2ccc(OCc3ncn(C)n3)cc2c1C(=O)NC1CCNCC1(F)F (single isomer, unassigned) [cpd 542-En 2] , report pIC50.
output: < 4.70

input: For the molecule Cc1oc2ccc(OCc3cnnn3C)cc2c1C(=O)NC1CCNCC1(F)F (single isomer, unassigned) [cpd 541-En 1] , report pIC50.
output: 4.70 to 6.00

----------
# TEST TARGET: mouse TRPM3α2 (mTRPM3) ion channel (Mus musculus (Mouse))
# ASSAY DETAILS: TRPM3 ion channel driven Ca2+ uptake, Fluo-4 AM assay, mTRPM3alpha2 overexpressing flip-in HEK293 cells stimulated with pregnenolone sulfate
# Format: cell-based
# CONDITION LABEL: PS (50 μM) stimulated, cpd 001-199
# Procedure: Part B Monitoring the TRPM3 Ion Channel Driven Ca^2+ Uptake. […] For mTRPM3, the intracellular Ca^2+ was measured with a Calcium responsive dye. […] Prior the cell seeding (±2000 cells/well into a black, 384 well plate (Greiner)) the diluted compound was added in the assay plate, together with the PS dissolved in Krebs buffer containing Calcium. […] Directly after cell addition the plates were read on an Envision fluorescence reader (Perkin Elmer) by an Excitation of 485 nm and emission at 535 nm. […]
pIC50: −log10 of the molar value.
Below is a list of entries, each paired with its recorded pIC50 value.

# COMPOUND, TEST TARGET, pIC50
rows = [
    ("Cc1ncsc1COc1ccc2oc(C)c(C(=O)Nc3cnn(C)c3)c2c1", "mouse TRPM3α2 (mTRPM3) ion channel (Mus musculus (Mouse))", "> 6.00"),
    ("Cc1ncsc1COc1ccc2oc(C)c(C(=O)NC3(C(N)=O)COC3)c2c1", "mouse TRPM3α2 (mTRPM3) ion channel (Mus musculus (Mouse))", "> 6.00"),
    ("Cc1ncsc1COc1ccc2oc(C)c(C(=O)Nc3cn[nH]c3)c2c1", "mouse TRPM3α2 (mTRPM3) ion channel (Mus musculus (Mouse))", "> 6.00"),
    ("Cc1ccc(COc2ccc3oc(C)c(C(=O)NC4CCOC4)c3c2)cn1 (stereo not shown)", "mouse TRPM3α2 (mTRPM3) ion channel (Mus musculus (Mouse))", "< 4.70"),
    ("Cc1oc2ccc(OCc3cncs3)cc2c1C(=O)N[C@H]1CCNC1", "mouse TRPM3α2 (mTRPM3) ion channel (Mus musculus (Mouse))", "> 6.00"),
]

input: For the compound Cc1cc2oc(C)c(C(=O)NC3CCNCC3(F)F)c2cc1OCc1cccnc1C(F)(F)F (single isomer, unassigned) [179-En 2] , report pIC50.
output: < 4.70

input: For the compound Cc1ncsc1COc1ccc2oc(C)c(C(=O)NC3CCNC3=O)c2c1 (stereo not shown) , report pIC50.
output: > 6.00

input: For the compound Cc1oc2ccc(OCc3cccnc3C(F)(F)F)cc2c1C(=O)NC1CN(CC(F)(F)F)CC1(F)F (single isomer, unassigned) , report pIC50.
output: > 6.00

input: For the compound Cc1oc2ccc(OCc3cccnc3C(F)(F)F)cc2c1C(=O)NC1CN(C)CC1(F)F (single isomer, unassigned) , report pIC50.
output: > 6.00

input: For the compound Cc1oc2c(F)cc(OCc3cccnc3C(F)(F)F)cc2c1C(=O)NC1CCNCC1(F)F (single isomer, unassigned) [cpd 176-En 1] , report pIC50.
output: 4.70 to 6.00

input: For the compound Cc1ncsc1COc1ccc2oc(C)c(C(=O)Nc3cc[nH]n3)c2c1 , report pIC50.
output: > 6.00

input: For the compound Cc1oc2ccc(OCc3cccnc3C(F)(F)F)cc2c1C(=O)NC1CCN(CC(F)(F)F)CC1 , report pIC50.
output: > 6.00

input: For the compound Cc1oc2ccc(OCc3cccnc3C(F)(F)F)cc2c1C(=O)NC1(CO)CCC1 , report pIC50.
output: > 6.00

input: For the compound Cc1ncsc1COc1ccc2oc(C)c(C(=O)NC3(CCO)CCC3)c2c1 , report pIC50.
output: > 6.00

input: For the compound Cc1ncsc1COc1ccc2oc(C)c(C(=O)NC3(CO)COC3)c2c1 , report pIC50.
output: > 6.00

input: For the compound Cc1oc2ccc(OCc3cccnc3C(F)(F)F)c(F)c2c1C(=O)NC1CCNCC1(F)F (single isomer, unassigned) , report pIC50.
output: > 6.00

----------
# TEST TARGET: mouse TRPM3α2 (mTRPM3) ion channel (Mus musculus (Mouse))
# ASSAY DETAILS: TRPM3 ion channel driven Ca2+ uptake, Fluo-4 AM assay, mTRPM3alpha2 overexpressing flip-in HEK293 cells stimulated with pregnenolone sulfate
# Format: cell-based
# CONDITION LABEL: PS (50 μM) stimulated, cpd 001-199
ENDPOINT NAME: IC50

# MOLECULE, EXPERIMENTAL RESULT
data = [
    ("Cc1oc2ccc(OCc3cccnc3C(F)(F)F)cc2c1C(=O)Nc1cn[nH]c1", "< 1000 nM"),
]

input: Report IC50 under test system mouse TRPM3α2 (mTRPM3) ion channel (Mus musculus (Mouse)) for Cc1oc2ccc(OCc3nccs3)cc2c1C(=O)NC1(CO)CCOCC1 .
output: < 1000 nM

input: Report IC50 under test system mouse TRPM3α2 (mTRPM3) ion channel (Mus musculus (Mouse)) for COc1ncccc1COc1ccc2oc(C)c(C(=O)NC3(CO)CCOCC3)c2c1 .
output: < 1000 nM
